biological target: purified human, His-tagged PRC2 complex (Homo sapiens, UniProt O75530+Q15910); assay: Hot Spot HMT assay: inhibition of PRC2 enzymatic activity (transfer of tritiated methyl from SAM to core histone, filter binding); type: biochemical; details: Inhibition of PRC2-mediated enzymatic activity; 10 nM PRC2 complex, 0.05 mg/ml core histone H3, 1 uM 3H-SAM, 1 hr at 30°C
Sequence (Q15910 whole entry): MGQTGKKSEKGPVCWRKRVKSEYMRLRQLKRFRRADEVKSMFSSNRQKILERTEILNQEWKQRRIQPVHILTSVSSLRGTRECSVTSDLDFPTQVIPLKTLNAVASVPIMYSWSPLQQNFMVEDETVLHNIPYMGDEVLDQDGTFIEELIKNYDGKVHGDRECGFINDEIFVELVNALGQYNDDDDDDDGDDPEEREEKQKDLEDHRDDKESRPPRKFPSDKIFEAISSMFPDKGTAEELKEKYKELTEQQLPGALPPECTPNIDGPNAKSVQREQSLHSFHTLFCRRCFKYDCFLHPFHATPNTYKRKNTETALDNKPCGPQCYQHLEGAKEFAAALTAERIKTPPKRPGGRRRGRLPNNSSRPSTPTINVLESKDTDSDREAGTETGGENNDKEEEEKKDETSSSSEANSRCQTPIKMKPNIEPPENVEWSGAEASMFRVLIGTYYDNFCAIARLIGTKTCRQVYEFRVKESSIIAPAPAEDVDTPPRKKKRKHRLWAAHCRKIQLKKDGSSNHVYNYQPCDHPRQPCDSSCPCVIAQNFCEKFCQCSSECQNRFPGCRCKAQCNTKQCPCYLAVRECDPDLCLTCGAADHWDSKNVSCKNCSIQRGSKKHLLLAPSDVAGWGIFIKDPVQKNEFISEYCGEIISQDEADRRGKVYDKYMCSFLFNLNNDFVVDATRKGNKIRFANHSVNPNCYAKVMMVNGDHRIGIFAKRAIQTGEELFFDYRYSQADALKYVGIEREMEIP
Sequence (O75530 whole entry): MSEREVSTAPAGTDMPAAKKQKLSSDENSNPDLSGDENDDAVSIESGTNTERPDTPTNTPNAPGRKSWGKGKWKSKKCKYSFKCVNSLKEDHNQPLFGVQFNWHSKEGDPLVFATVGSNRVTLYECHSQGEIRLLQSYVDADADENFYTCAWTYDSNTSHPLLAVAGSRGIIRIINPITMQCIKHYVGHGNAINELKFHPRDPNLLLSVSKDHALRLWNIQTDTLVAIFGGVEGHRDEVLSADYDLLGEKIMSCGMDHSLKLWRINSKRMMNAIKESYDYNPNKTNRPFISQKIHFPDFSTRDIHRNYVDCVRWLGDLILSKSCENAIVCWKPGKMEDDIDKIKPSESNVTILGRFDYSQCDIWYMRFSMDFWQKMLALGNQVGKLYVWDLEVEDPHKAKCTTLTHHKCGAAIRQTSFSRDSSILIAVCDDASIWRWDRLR
Sequence (Q15022 whole entry partner): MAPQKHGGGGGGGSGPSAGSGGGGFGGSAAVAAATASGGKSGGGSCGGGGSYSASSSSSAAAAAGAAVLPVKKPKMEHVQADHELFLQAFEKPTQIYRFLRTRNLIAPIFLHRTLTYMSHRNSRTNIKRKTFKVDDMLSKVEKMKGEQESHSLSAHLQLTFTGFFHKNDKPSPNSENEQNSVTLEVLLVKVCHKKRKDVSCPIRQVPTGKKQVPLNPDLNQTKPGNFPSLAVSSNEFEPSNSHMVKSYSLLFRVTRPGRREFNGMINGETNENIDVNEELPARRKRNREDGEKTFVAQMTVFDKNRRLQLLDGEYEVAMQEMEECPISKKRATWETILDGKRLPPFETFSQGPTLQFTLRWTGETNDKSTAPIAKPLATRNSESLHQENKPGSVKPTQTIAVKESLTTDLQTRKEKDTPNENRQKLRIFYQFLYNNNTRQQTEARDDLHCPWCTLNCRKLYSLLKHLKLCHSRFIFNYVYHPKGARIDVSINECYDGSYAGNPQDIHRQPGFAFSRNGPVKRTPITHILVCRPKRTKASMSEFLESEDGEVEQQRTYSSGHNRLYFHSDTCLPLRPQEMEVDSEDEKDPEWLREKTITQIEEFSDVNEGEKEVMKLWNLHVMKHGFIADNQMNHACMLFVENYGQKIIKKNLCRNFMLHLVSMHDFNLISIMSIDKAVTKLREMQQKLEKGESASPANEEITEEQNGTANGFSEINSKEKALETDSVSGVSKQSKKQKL
Sequence (Q6ZN18 whole entry partner): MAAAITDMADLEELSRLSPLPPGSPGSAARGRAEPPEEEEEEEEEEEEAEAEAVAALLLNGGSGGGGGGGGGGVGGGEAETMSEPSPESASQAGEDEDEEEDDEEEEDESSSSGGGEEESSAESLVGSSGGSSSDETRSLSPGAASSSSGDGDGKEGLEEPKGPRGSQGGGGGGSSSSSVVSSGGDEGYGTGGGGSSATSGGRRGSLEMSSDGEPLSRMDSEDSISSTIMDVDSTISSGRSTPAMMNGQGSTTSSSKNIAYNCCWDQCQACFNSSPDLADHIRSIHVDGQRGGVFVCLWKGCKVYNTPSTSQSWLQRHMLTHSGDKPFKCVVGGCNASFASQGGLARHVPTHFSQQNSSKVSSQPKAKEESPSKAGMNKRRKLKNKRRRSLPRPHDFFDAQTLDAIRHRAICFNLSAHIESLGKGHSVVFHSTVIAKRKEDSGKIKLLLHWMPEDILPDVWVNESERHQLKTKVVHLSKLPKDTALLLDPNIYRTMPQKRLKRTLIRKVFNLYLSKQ
Sequence (Q09028 whole entry partner): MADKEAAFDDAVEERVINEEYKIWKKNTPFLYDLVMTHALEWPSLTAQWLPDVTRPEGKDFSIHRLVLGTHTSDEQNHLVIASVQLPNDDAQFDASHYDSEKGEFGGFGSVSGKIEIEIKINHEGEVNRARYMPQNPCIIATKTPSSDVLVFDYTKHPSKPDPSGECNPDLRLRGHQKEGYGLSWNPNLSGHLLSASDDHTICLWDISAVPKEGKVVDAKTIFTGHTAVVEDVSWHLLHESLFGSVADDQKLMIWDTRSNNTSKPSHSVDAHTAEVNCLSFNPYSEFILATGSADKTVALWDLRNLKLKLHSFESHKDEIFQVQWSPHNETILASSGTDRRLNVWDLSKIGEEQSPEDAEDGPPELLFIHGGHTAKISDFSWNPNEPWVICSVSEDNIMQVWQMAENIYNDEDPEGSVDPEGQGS
pIC50: −log10 of the molar value.
Test Readout: pIC50

Worked examples, 4 molecules total:
Cc1cc(CN(C)C)ccc1-c1cnc(NCc2c(F)ccc3c2C(O)CO3)n2cc(C#N)nc12 (stereo not shown) [Example 207]	> 7.00
N#Cc1cn2c(NCc3c(F)ccc4c3CCO4)ncc(-c3ccc4c(c3)CNC4)c2n1 [Example 205]	6.30 to 7.00
Cc1cc(-c2cnc(NCc3cccc4c3CCO4)n3cc(C(=O)O)nc23)n(C)n1 [Example 10]	> 7.00
COCCOc1ccc(-c2cnc(NCc3c(F)ccc4c3CCO4)n3cc(C#N)nc23)cc1 [Example 161]	> 7.00

I am curious: what pIC50 value has been reported for Cc1nn(C[C@H](C)O)c(C)c1-c1cnc(NCc2c(F)ccc3c2CCO3)n2cc(C#N)nc12 [Example 65] ? 6.30 to 7.00

I am curious: what pIC50 value has been reported for CN(C)Cc1ccc(-c2cnc(NCc3c(F)ccc4c3CCO4)n3cc(C#N)nc23)cc1F [Example 63] ? > 7.00

I am curious: what pIC50 value has been reported for Cc1ccncc1-c1cnc(NCc2c(F)ccc3c2CCO3)n2cc(C#N)nc12 [Example 98] ? > 7.00

I am curious: what pIC50 value has been reported for Cc1cc(CN(C)C)ncc1-c1cnc(NCc2c(F)ccc3c2CCO3)n2cc(C#N)nc12 [Example 195] ? > 7.00

I am curious: what pIC50 value has been reported for COc1cc(-c2cnc(NCc3c(F)ccc4c3CCO4)n3cc(C#N)nc23)c(OC)cn1 [Example 125] ? > 7.00

I am curious: what pIC50 value has been reported for Cc1ncccc1-c1cnc(NCc2c(F)ccc3c2CCO3)n2cc(C(N)=O)nc12 [Example 137] ? > 7.00

I am curious: what pIC50 value has been reported for COc1ncc(-c2cnc(NCc3c(F)ccc4c3CCO4)n3cc(C#N)nc23)cc1C#N [Example 130] ? 6.30 to 7.00

I am curious: what pIC50 value has been reported for Cc1ccc(-c2cnc(NCc3c(F)ccc4c3CCO4)n3cc(C#N)nc23)cc1 [Example 175] ? 6.30 to 7.00

I am curious: what pIC50 value has been reported for N#Cc1cn2c(NCc3c(F)ccc4c3CCO4)ncc(-c3ccc(C4COCCN4)cc3)c2n1 (stereo not shown) [Example 225] ? > 7.00

I am curious: what pIC50 value has been reported for N#Cc1cn2c(NCc3c(F)ccc4c3CCO4)ncc(-c3cccnc3)c2n1 [Example 100] ? > 7.00

I am curious: what pIC50 value has been reported for Cc1cc(C2CCCN2)ccc1-c1cnc(NCc2c(F)ccc3c2CCO3)n2cc(C#N)nc12 (single isomer, unassigned) [Example 214] ? > 7.00

I am curious: what pIC50 value has been reported for N#Cc1cn2c(NCc3c(F)ccc4c3CCO4)ncc(-c3ccc(N)nc3)c2n1 [Example 127] ? > 7.00
